# System: MS2 coat protein
# ASSAY SUMMARY: apparent KD of MS2 coat protein; designed switch direction (-1 OFF switch, 1 ON switch): -1; higher = weaker reporter binding
# STATED CONDITIONS: Eterna round: R95; input ligand: microRNA oligo, concentration not stated
ENDPOINT: apparent KD of MS2 coat protein (nM)

[
  {
    "MACROMOLECULE SEQUENCE": "CGAAAGGUAGGAUAUACGAAGAAAAAGGGUAGAAGAAGAACACAUGAGGAUCACCCAUGUAGAAGGACCAAAGC [Mat - Exclusion 2 - Mod of my Tesla design - D16] (puzzle: Exclusion 2)",
    "ENDPOINT": "apparent KD of MS2 coat protein",
    "READOUT VALUE": 22.1
  },
  {
    "MACROMOLECULE SEQUENCE": "AAACGUAGACAGGAUAUCUGCGCCCUUGGUUAAAGAGAAGGGUCUACAUGAGGAUCACCCAUGUGGUGUAACUC [Dibedididi] (puzzle: Exclusion 6)",
    "ENDPOINT": "apparent KD of MS2 coat protein",
    "READOUT VALUE": 18.4
  },
  {
    "MACROMOLECULE SEQUENCE": "AAGAAGCUAGGAUAUCACACUGACAACAUGAGGAUCACCCAUGUAGGUGAUCGGUUAGCUUGAGAAGGAGCGGAGG [Laedanes] (puzzle: Exclusion 5)",
    "ENDPOINT": "apparent KD of MS2 coat protein",
    "READOUT VALUE": 46.9
  },
  {
    "MACROMOLECULE SEQUENCE": "AAGUACCGUCACGAUAGUGAUGGUACAACAAGUAGUGAAACAUGAGGAUCACCCAUGUCCUCAUUUGCUCGUCUUAU [Sensor 3 - 87] (puzzle: Sensor v3, turn-off variant 2)",
    "ENDPOINT": "apparent KD of MS2 coat protein",
    "READOUT VALUE": 365
  },
  {
    "MACROMOLECULE SEQUENCE": "GUGAAACAUGAGGAUCACCCAUGUGAGGAUAUGUUUUAGUACUGCUGACAGUACAUCUAUAGAAGGCACAAUGG [JL-ex1-02] (puzzle: Exclusion 1)",
    "ENDPOINT": "apparent KD of MS2 coat protein",
    "READOUT VALUE": 33.7
  }
]

* * *

# System: MS2 coat protein
# ASSAY SUMMARY: apparent KD of MS2 coat protein; designed switch direction (-1 OFF switch, 1 ON switch): -1; higher = weaker reporter binding
# STATED CONDITIONS: Eterna round: R95; input ligand: none
Tag: true if measured apparent KD of MS2 coat protein is not below 50 nM, false if it is.

[
  {
    "MACROMOLECULE SEQUENCE": "UAGAUGCUCAGGGAGUGUGACAUGAGGAUCACCCAUGUGGUGGUAGGGAACAAGCUUUUUGCACGUACUUAUGAGUA [JR_SV3TOV1_Sub007] (puzzle: Sensor v3, turn-off variant 1)",
    "LABEL": "true"
  },
  {
    "MACROMOLECULE SEQUENCE": "GAAAACGCAGAGGAUAUUCCAGAUCUAAGCUGCGAAGAAGGCUGCACAUGAGGAUCACCCAUGUGGUCUUUAAA [Maoned] (puzzle: Exclusion 6)",
    "LABEL": "false"
  },
  {
    "MACROMOLECULE SEQUENCE": "AAGUACCGUCACGAUAGUGAUGGUACAACAAGCAUGUAAACAUGAGGAUCACCCAUGUCCUCAUAUGCUCGUCUUAU [Sensor 3 - 64] (puzzle: Sensor v3, turn-off variant 2)",
    "LABEL": "true"
  },
  {
    "MACROMOLECULE SEQUENCE": "CAUACUGAAGUUAGGAUAUUCGAACGUAUACGGAUGGAGAAGGGACAUGAGGAUCACCCAUGUAGUUAGUAAAG [EX-4 Malc #10] (puzzle: Brourd's mod of Exclusion 4)",
    "LABEL": "false"
  }
]
